Data origin, for the record: patent US12178809B2

# tested-target: AOC2 (Homo sapiens (Human))
# method-notes: AOC2 biochemical assay (Amplex Red)
property: fold less active against AOC2 as compared to AOC3 (ratio IC50 AOC2/IC50 AOC3)

- compound: "NC/C(=C\\F)COc1ccc(S(=O)(=O)N2CC[C@H](O)C2)cn1 [Example 35]"
  measurement: "ca. 5 fold"
- compound: "COC1CCN(S(=O)(=O)c2ccc(OC/C(=C/F)CN)nc2)C1.O=C(O)C(F)(F)F (centres unmarked) [Example 40]"
  measurement: "ca. 5 fold"
- compound: "COC1CN(S(=O)(=O)c2ccc(OC/C(=C/F)CN)cc2)C1 [Reference compound A, reference compound]"
  measurement: "22 fold"

---

# tested-target: human AOC3 enzyme (Homo sapiens (Human), UniProt Q16853)
# Sequence (Q16853 whole entry): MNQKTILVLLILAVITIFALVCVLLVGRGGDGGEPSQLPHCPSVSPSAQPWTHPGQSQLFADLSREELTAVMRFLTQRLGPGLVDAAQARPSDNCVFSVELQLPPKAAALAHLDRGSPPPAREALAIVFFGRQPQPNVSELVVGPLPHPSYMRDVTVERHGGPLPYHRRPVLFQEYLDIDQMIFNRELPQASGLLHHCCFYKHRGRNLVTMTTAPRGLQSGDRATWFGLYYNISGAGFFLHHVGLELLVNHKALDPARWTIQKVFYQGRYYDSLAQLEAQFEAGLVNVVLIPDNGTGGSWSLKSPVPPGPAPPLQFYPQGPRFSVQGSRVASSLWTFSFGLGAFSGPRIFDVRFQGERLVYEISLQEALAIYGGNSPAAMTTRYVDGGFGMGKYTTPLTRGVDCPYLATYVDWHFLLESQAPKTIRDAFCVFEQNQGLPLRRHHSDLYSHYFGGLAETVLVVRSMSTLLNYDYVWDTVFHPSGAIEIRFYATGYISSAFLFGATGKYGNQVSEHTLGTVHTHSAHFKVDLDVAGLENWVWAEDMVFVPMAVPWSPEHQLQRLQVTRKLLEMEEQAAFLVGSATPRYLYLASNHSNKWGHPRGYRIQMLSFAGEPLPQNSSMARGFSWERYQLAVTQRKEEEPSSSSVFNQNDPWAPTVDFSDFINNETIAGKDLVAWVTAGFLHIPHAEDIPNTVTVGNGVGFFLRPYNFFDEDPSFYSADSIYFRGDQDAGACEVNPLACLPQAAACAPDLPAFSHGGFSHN
# method-notes: AOC3 biochemical assay (MAO-Glo)
# conditions-used: read-out: AOC3 IC50
Counter-ions that a name gives are not always drawn.
property: IC50 (nM)
Provide the reading as a plain figure in nM.

Solved cases (3 shown):
- compound: "CN(C)C(=O)[C@H]1CCN(S(=O)(=O)c2ccc(OC/C(=C/F)CN)nc2)C1 [Example 27]"
  result-units: "nM"
  measurement: 51
- compound: "CNC(=O)C1CCN(S(=O)(=O)c2ccc(OC/C(=C/F)CN)nc2)CC1 [Example 44, trifluoroacetate]"
  result-units: "nM"
  measurement: 14
- compound: "CC(=O)NC1CCN(S(=O)(=O)c2ccc(OC/C(=C/F)CN)nc2)C1 (stereo not shown) [Example 23]"
  result-units: "nM"
  measurement: 62

Next up:
QUERY: Using the record for CC(=O)NCC1CCN(S(=O)(=O)c2ccc(OC/C(=C/F)CN)nc2)CC1 [Example 15] , report its IC50.
RESULT: 38

---

# tested-target: AOC1 (Homo sapiens (Human), UniProt P19801)
# Sequence (P19801 20-751): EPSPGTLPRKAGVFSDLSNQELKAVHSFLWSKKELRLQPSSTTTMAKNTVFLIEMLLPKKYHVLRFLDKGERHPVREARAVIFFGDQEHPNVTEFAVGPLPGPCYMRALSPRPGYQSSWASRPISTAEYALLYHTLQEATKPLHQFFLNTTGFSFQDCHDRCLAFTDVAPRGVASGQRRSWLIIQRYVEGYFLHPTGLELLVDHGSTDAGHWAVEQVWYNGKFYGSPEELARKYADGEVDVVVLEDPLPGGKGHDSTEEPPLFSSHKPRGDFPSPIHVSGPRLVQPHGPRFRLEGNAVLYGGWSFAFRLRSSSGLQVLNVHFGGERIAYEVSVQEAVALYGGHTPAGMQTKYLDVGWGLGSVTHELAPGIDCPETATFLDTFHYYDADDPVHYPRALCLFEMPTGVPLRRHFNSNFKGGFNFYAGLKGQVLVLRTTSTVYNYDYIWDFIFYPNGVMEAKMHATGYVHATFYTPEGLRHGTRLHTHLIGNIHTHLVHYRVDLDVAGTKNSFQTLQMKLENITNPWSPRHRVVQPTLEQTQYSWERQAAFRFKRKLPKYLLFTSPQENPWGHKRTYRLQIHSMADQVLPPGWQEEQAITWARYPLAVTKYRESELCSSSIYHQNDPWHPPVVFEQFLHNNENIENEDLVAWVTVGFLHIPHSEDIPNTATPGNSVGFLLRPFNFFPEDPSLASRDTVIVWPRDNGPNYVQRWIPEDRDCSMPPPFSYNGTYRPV
# method-notes: AOC1 biochemical assay (Amplex Red)
# conditions-used: read-out: AOC1 IC50
Counter-ions that a name gives are not always drawn.
property: IC50

Worked examples, 8 compounds total:
- compound: "CC(C)(O)C1CN(S(=O)(=O)c2ccc(OC/C(=C/F)CN)nc2)C1"
  property: "IC50"
  measurement: "> 50 µM"
- compound: "COC1CCN(S(=O)(=O)c2ccc(OC/C(=C/F)CN)nc2)CC1"
  property: "IC50"
  measurement: "> 50 µM"
- compound: "NC/C(=C\\F)COc1ccc(S(=O)(=O)N2CC[C@@H](C(N)=O)C2)cn1"
  property: "IC50"
  measurement: "33 µM"
- compound: "NC/C(=C\\F)COc1ccc(S(=O)(=O)N2CC(C3CCN(C(=O)C4CC4)CC3)C2)cn1"
  property: "IC50"
  measurement: "39.5 µM"
- compound: "NC/C(=C\\F)COc1ccc(S(=O)(=O)N2CCC(C(=O)N3CCOCC3)(c3ccccc3)CC2)cn1"
  property: "IC50"
  measurement: "6.17 µM"
- compound: "NC/C(=C\\F)COc1ccc(S(=O)(=O)N2CCC(C(=O)NCCF)CC2)cn1"
  property: "IC50"
  measurement: "> 50 µM"
- compound: "COC1CN(S(=O)(=O)c2ccc(OC/C(=C/F)CN)nc2)C1"
  property: "IC50"
  measurement: "> 50 µM"
- compound: "NC/C(=C\\F)COc1ccc(S(=O)(=O)N2CCC(C(N)=O)CC2)cn1"
  property: "IC50"
  measurement: "> 50 µM"

QUERY: So what does the record say about IC50 for CC(=O)N(C)C1CCN(S(=O)(=O)c2ccc(OC/C(=C/F)CN)nc2)CC1 ?
RESULT: > 50 µM

QUERY: Given the entry CNC(=O)C1CCN(S(=O)(=O)c2ccc(OC/C(=C/F)CN)nc2)CC1 [Example 44, trifluoroacetate] , report its measured IC50.
RESULT: > 50 µM

QUERY: Dear colleague, I am looking for the recorded IC50 of the following compound: NC/C(=C\F)COc1ccc(S(=O)(=O)N2CC(C(N)=O)C2)cn1
RESULT: > 50 µM

QUERY: Consider the compound COC1CCN(S(=O)(=O)c2ccc(OC/C(=C/F)CN)nc2)C1.O=C(O)C(F)(F)F (stereo not shown) and give its measured IC50.
RESULT: > 50 µM

QUERY: Endpoint output: IC50 of NC/C(=C\F)COc1ccc(S(=O)(=O)N2CCC(CC(N)=O)CC2)cn1 . Value?
RESULT: > 50 µM

QUERY: Requested read-out: IC50. Entry: CC(=O)N[C@H]1CCCN(S(=O)(=O)c2ccc(OC/C(=C/F)CN)nc2)C1
RESULT: > 50 µM

---

# tested-target: AOC1 (Homo sapiens (Human), UniProt P19801)
# method-notes: AOC1 biochemical assay (Amplex Red)
# conditions-used: read-out: AOC1 IC50
property: pIC50
# log scale: pIC50 equals minus log10 of the concentration in mol/L

- mol-smiles: "CCNC(=O)C1(C)CCN(S(=O)(=O)c2ccc(OC/C(=C/F)CN)nc2)CC1"
  measurement: 4.80
- mol-smiles: "CC(=O)N1CC(C2CCN(S(=O)(=O)c3ccc(OC/C(=C/F)CN)nc3)CC2)C1"
  measurement: 4.85
- mol-smiles: "NC/C(=C\\F)COc1ccc(S(=O)(=O)N2CCC(C(=O)O)CC2)cn1"
  measurement: 4.46
- mol-smiles: "COCCNC(=O)[C@H]1[C@@H]2CN(S(=O)(=O)c3ccc(OC/C(=C/F)CN)nc3)C[C@@H]21"
  measurement: 4.51
- mol-smiles: "CNC(=O)[C@@]12C[C@@H]1CN(S(=O)(=O)c1ccc(OC/C(=C/F)CN)nc1)C2"
  measurement: 4.63

Moving on to the next molecule.
QUERY: State the recorded pIC50 for this entry: CNC(=O)[C@H]1[C@@H]2CN(S(=O)(=O)c3ccc(OC/C(=C/F)CN)nc3)C[C@@H]21
RESULT: 4.36

---

# tested-target: AOC2 (Homo sapiens (Human), UniProt O75106)
# Sequence (O75106 whole entry): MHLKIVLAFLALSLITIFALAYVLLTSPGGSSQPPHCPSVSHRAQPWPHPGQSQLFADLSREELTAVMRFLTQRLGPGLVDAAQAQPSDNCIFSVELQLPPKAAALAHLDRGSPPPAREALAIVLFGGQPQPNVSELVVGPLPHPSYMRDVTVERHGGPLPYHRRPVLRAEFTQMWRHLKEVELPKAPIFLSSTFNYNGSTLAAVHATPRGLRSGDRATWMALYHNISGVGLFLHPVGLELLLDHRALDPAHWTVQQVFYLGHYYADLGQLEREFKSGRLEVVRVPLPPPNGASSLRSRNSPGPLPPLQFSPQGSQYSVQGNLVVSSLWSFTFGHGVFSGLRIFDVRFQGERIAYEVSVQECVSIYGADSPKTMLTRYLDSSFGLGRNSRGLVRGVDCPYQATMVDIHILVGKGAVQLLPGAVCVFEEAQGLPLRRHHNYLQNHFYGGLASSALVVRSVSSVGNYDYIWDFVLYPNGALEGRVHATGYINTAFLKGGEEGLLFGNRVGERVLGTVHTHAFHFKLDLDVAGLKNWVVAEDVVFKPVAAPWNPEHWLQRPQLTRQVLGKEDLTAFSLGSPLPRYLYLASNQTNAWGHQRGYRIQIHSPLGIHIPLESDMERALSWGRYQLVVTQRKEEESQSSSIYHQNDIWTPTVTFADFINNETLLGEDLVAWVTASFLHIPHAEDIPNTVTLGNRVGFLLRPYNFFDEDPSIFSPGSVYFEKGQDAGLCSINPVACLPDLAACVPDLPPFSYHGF
# method-notes: AOC2 biochemical assay (Amplex Red)
# conditions-used: read-out: AOC2 IC50
property: IC50
Enter the number, and then the unit.

Before answering, review these 5 worked examples.
- compound: "NC/C(=C\\F)COc1ccc(S(=O)(=O)N2C[C@H]3C[C@@]3(C(=O)N3CCOCC3)C2)cn1"
  IC50: "126 nM"
- compound: "NC/C(=C\\F)COc1ccc(S(=O)(=O)N2CCC(F)(F)C2)cn1"
  IC50: "69 nM"
- compound: "NC/C(=C\\F)COc1ccc(S(=O)(=O)N2CC3CC3C2)cn1 (centres unmarked)"
  IC50: "123 nM"
- compound: "NC/C(=C\\F)COc1ccc(S(=O)(=O)N2CC[C@H](C(N)=O)C2)cn1"
  IC50: "50 nM"
- compound: "NC/C(=C\\F)COc1ccc(S(=O)(=O)N2CC(F)(F)C2)cn1"
  IC50: "451 nM"

QUERY: I'm curious: which IC50 was measured for CC(=O)N(C)C1CCN(S(=O)(=O)c2ccc(OC/C(=C/F)CN)nc2)CC1 tested on AOC2 (Homo sapiens (Human), UniProt O75106)?
RESULT: 192 nM

QUERY: Item COC(=O)C1(C)CCN(S(=O)(=O)c2ccc(OC/C(=C/F)CN)nc2)CC1 with AOC2 (Homo sapiens (Human), UniProt O75106) - IC50?
RESULT: 19 nM

QUERY: // lookup IC50 | system=AOC2 (Homo sapiens (Human), UniProt O75106) | key= CN(C(N)=O)C1CCN(S(=O)(=O)c2ccc(OC/C(=C/F)CN)nc2)CC1
RESULT: 524 nM

QUERY: Requested read-out IC50, target or system AOC2 (Homo sapiens (Human), UniProt O75106), entry CC1(O)CCN(S(=O)(=O)c2ccc(OC/C(=C/F)CN)nc2)CC1
RESULT: 67 nM

QUERY: Give recorded IC50 with AOC2 (Homo sapiens (Human), UniProt O75106) for the following compound: NC/C(=C\F)COc1ccc(S(=O)(=O)N2CCC(N3CCNC3=O)CC2)cn1
RESULT: 806 nM

QUERY: Lab note: need IC50 with AOC2 (Homo sapiens (Human), UniProt O75106) for entry CNC(=O)[C@H]1CCN(S(=O)(=O)c2ccc(OC/C(=C/F)CN)nc2)C1 , please look it up.
RESULT: 151 nM

QUERY: Hi! What's the reported IC50 for NC/C(=C\F)COc1ccc(S(=O)(=O)N2C[C@@H]3[C@H](C2)[C@H]3C(=O)O)cn1 on AOC2 (Homo sapiens (Human), UniProt O75106)?
RESULT: 50 nM

QUERY: What is its IC50 for AOC2 (Homo sapiens (Human), UniProt O75106)? Entry: COC(=O)CC1CCN(S(=O)(=O)c2ccc(OC/C(=C/F)CN)nc2)CC1
RESULT: 188 nM

QUERY: Hi! What's the reported IC50 for CC(=O)NCC1CCN(S(=O)(=O)c2ccc(OC/C(=C/F)CN)nc2)CC1 on AOC2 (Homo sapiens (Human), UniProt O75106)?
RESULT: 263 nM

QUERY: Hi! What's the reported IC50 for CNC(=O)[C@@]12C[C@@H]1CN(S(=O)(=O)c1ccc(OC/C(=C/F)CN)nc1)C2 on AOC2 (Homo sapiens (Human), UniProt O75106)?
RESULT: 1020 nM

QUERY: Form entry - test system: AOC2 (Homo sapiens (Human), UniProt O75106); read-out: IC50; compound: NC/C(=C\F)COc1ccc(S(=O)(=O)N2CCC(C(=O)N3CCC3)CC2)cn1
RESULT: 358 nM

QUERY: Checklist item: IC50 tested on AOC2 (Homo sapiens (Human), UniProt O75106), entry CC1(C(N)=O)CCN(S(=O)(=O)c2ccc(OC/C(=C/F)CN)nc2)CC1 , value?
RESULT: 61 nM
